assay: Therapeutic index (CC50/EC50) for RSV infected Hep2 cells; assay type: cell-based, HEp-2; conditions: human, read-out: Ratio CC50/EC50
Measured selectivity ratio values are reported for all entries that follow.
Could you respond with only the numeric value?

Query string: Can you share its selectivity ratio? I mean this molecule: `O=C(O)c1ccc(Cn2c(=O)n(Cc3nc4ccccc4[nH]3)c3ccccc32)cc1`
Result string: 5400

Query string: Can you share its selectivity ratio? I mean this molecule: `C=C(C)n1c(=O)n(Cc2nc3ccccc3n2CCCN(C)C)c2ccccc21`
Result string: 265

Query string: Can you share its selectivity ratio? I mean this molecule: `CC(C)n1c(=O)n(Cc2nc3ccccc3n2CCc2nnn[nH]2)c2ccccc21`
Result string: 11800

Query string: Can you share its selectivity ratio? I mean this molecule: `CC(C)n1c(=O)n(Cc2nc3ccccc3n2CCc2noc(O)n2)c2ccccc21`
Result string: 3540
